GDP-loaded wild-type KRAS (WT) (Homo sapiens): recorded IC50 for assorted compounds
Sequence (P01116 1-188 isoform P01116-2): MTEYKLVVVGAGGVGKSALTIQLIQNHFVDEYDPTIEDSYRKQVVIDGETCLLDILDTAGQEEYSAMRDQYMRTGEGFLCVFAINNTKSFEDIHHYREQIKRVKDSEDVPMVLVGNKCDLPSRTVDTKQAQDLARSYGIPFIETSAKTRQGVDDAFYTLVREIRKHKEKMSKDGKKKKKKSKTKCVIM

Study these solved cases before continuing.
- COMPOUND: "CCC1CCCc2cc(N)cc(-c3nc4c5c(nc(OCC67CCCN6CCC7)nc5c3F)N3C[C@@]5(F)CC[C@](F)(N5)[C@H]3CCC4)c21 (some centres unmarked) [Example 4-24]"
  RESULT: "> 100 nM"
- COMPOUND: "Cn1ccc2cc(N)cc(-c3nc4c5c(nc(OCC67CCCN6CCC7)nc5c3F)N3C[C@@]5(F)CC[C@](F)(N5)[C@H]3CCC4)c2c1=O [Example 4-25]"
  RESULT: "> 100 nM"
- COMPOUND: "C#Cc1c(F)c(F)cc2cc(N)cc(-c3nc4c5c(nc(OCC67CCCN6CCC7)nc5c3F)N3C[C@@]5(F)CC[C@](F)(N5)[C@@H]3[C@@H](C)C4)c12 [Example 5-7]"
  RESULT: "0.116 nM"
- COMPOUND: "Oc1cc(-c2nc3c4c(nc(OCC56CCCN5CCC6)nc4c2F)N2C[C@@]4(F)CC[C@](F)(N4)[C@H]2CCC3)c2c(OC(F)(F)F)c(F)ccc2c1 [Example 4-23]"
  RESULT: "0.502 nM"

Task: Which IC50 reading was recorded for the compound C#Cc1c(F)ccc2cccc(-c3nc4c5c(nc(OCC67CCCN6CCC7)nc5c3F)N3C[C@@]5(F)CC[C@](F)(N5)[C@H]3CCC4)c12 [Example 4-29] ?
Result: 5.99 nM

###

ASSAYED SYSTEM: GDP-loaded KRAS-G12D (Homo sapiens, UniProt P01116, G12D)
Sequence (P01116 1-188 isoform P01116-2 G12D): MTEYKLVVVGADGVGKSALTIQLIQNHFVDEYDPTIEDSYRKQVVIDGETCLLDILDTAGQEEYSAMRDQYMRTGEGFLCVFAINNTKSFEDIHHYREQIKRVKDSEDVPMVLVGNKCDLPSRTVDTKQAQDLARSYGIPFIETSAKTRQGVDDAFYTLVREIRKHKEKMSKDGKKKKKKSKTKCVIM
ASSAY: KRAS (GDP) biochemical TR-FRET probe displacement assay, G12D
APPLIED CONDITIONS: 2 hours
pIC50: −log10 of the molar value.
Label scheme for pIC50: lower than 8 is rule not met, 8 and above is rule met.

Field: example entries. Status: answers known.
- COMPOUND: "Oc1cc(-c2nc3c4c(nc(OCC56CCCN5CCC6)nc4c2F)N2C[C@@]4(F)CC[C@](F)(N4)[C@H]2CCC3)c2c(OC(F)(F)F)c(F)ccc2c1 [Example 4-23]"
  ASSAYED SYSTEM: "GDP-loaded KRAS-G12D (Homo sapiens, UniProt P01116, G12D)"
  CATEGORY LABEL: "rule met"
- COMPOUND: "C#Cc1c(F)ccc2cc(N)cc(-c3nc4c5c(nc(OC[C@@]67CCCN6[C@H](COC(C(F)(F)F)(C(F)(F)F)C(F)(F)F)CC7)nc5c3F)N3C[C@@]5(F)CC[C@](F)(N5)[C@H]3CCC4)c12 [Example 4-28]"
  ASSAYED SYSTEM: "GDP-loaded KRAS-G12D (Homo sapiens, UniProt P01116, G12D)"
  CATEGORY LABEL: "rule not met"
- COMPOUND: "CCC1CCCc2cc(N)cc(-c3nc4c5c(nc(OCC67CCCN6CCC7)nc5c3F)N3C[C@@]5(F)CC[C@](F)(N5)[C@H]3CCC4)c21 (stereo partly shown) [Example 4-24]"
  ASSAYED SYSTEM: "GDP-loaded KRAS-G12D (Homo sapiens, UniProt P01116, G12D)"
  CATEGORY LABEL: "rule not met"
- COMPOUND: "C[C@H]1Cc2nc(-c3cc(O)cc4ccc(F)c(Cl)c34)c(F)c3nc(OCC45CCCN4CCC5)nc(c23)N2C[C@@]3(F)CC[C@](F)(N3)[C@H]12 [Example 4-30]"
  ASSAYED SYSTEM: "GDP-loaded KRAS-G12D (Homo sapiens, UniProt P01116, G12D)"
  CATEGORY LABEL: "rule met"

Task: Hi, just wondering whether Cc1c(F)c(N)cc(-c2nc3c4c(nc(OCC56CCCN5CCC6)nc4c2F)N2C[C@@]4(F)CC[C@](F)(N4)[C@@H]2[C@@H](C)C3)c1C(F)(F)F [Example 4-13] shows pIC50 of 8 or higher.
Result: rule not met

Task: Hi, just wondering whether N#Cc1c(N)sc2c(F)ccc(-c3nc4c5c(nc(OC[C@@]67CCCN6C[C@H](F)C7)nc5c3F)N3C[C@@]5(F)CC[C@](F)(N5)[C@@H]3CC4)c12 [Example 4-21] shows pIC50 of 8 or higher.
Result: rule met

Task: Hi, just wondering whether C#Cc1c(F)ccc2cc(O)cc(-c3c(F)c4c5c(nc(OC[C@@]67CCCN6C[C@H](F)C7)nc5c3F)N3C[C@@]5(F)CC[C@H](N5)[C@H]3CC4)c12 [Example 4-41] shows pIC50 of 8 or higher.
Result: rule met

Task: Hi, just wondering whether C#Cc1c(F)ccc2cccc(-c3nc4c5c(nc(OCC67CCCN6CCC7)nc5c3F)N3C[C@@]5(F)CC[C@](F)(N5)[C@H]3CCC4)c12 [Example 4-29] shows pIC50 of 8 or higher.
Result: rule not met

Task: Hi, just wondering whether C[C@H]1Cc2nc(-c3cc(N)cc(Cl)c3C(F)(F)F)c(F)c3nc(OCC45CCCN4CCC5)nc(c23)N2C[C@@]3(F)CC[C@](F)(N3)[C@H]12 [Example 4-17] shows pIC50 of 8 or higher.
Result: rule met

Task: Hi, just wondering whether N#Cc1c(N)sc2c(F)ccc(-c3nc4c5c(nc(OCC67CCCN6CCC7)nc5c3F)N3C[C@@]5(F)CC[C@](F)(N5)[C@H]3CCC4)c12 [Example 4-7] shows pIC50 of 8 or higher.
Result: rule not met

Task: Hi, just wondering whether C[C@H]1Cc2nc(-c3cc(O)cc4ccc(F)c(F)c34)c(F)c3nc(OCC45CCCN4CCC5)nc(c23)N2C[C@@]3(F)CC[C@](F)(N3)[C@H]12 [Example 4-12] shows pIC50 of 8 or higher.
Result: rule met

Task: Hi, just wondering whether Cn1ccc2cc(N)cc(-c3nc4c5c(nc(OCC67CCCN6CCC7)nc5c3F)N3C[C@@]5(F)CC[C@](F)(N5)[C@H]3CCC4)c2c1=O [Example 4-25] shows pIC50 of 8 or higher.
Result: rule not met

Task: Hi, just wondering whether C[C@H]1Cc2nc(-c3ccc(F)c4sc(N)c(C#N)c34)c(F)c3nc(OCC45CCCN4CCC5)nc(c23)N2C[C@@]3(F)CC[C@](F)(N3)[C@H]12 [Example 4-14] shows pIC50 of 8 or higher.
Result: rule met

Task: Hi, just wondering whether C#Cc1c(F)c(F)cc2cc(N)cc(-c3nc4c5c(nc(OCC67CCCN6CCC7)nc5c3F)N3C[C@@]5(F)CC[C@](F)(N5)[C@@H]3[C@@H](C)C4)c12 [Example 5-7] shows pIC50 of 8 or higher.
Result: rule met

Task: Hi, just wondering whether C#Cc1c(F)ccc2cc(N)cc(-c3nc4c5c(nc(OC[C@]6(C)CN(C)CC/C6=C\F)nc5c3F)N3C[C@@]5(F)CC[C@](F)(N5)[C@@H]3[C@@H](C)C4)c12 [Example 4-39] shows pIC50 of 8 or higher.
Result: rule met

Task: Hi, just wondering whether Nc1cc(-c2nc3c4c(nc(OCC56CCCN5CCC6)nc4c2F)N2C[C@@]4(F)CC[C@](F)(N4)[C@H]2CCC3)c2c(OC(F)(F)F)c(F)ccc2c1 [Example 5-5] shows pIC50 of 8 or higher.
Result: rule not met

###

ASSAYED SYSTEM: GDP-loaded KRAS-G12C (Homo sapiens, UniProt P01116, G12C)
Sequence (P01116 1-188 isoform P01116-2 G12C): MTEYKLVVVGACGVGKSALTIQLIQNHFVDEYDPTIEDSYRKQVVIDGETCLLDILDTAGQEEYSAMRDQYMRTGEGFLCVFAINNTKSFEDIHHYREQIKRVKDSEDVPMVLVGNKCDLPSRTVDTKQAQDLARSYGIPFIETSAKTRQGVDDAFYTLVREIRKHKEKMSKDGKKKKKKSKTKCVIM
ASSAY: KRAS (GDP) biochemical TR-FRET probe displacement assay, G12C
APPLIED CONDITIONS: 2 hours
Here the recorded IC50 is given for each entry.

- COMPOUND: "CCC1CCCc2cc(N)cc(-c3nc4c5c(nc(OCC67CCCN6CCC7)nc5c3F)N3C[C@@]5(F)CC[C@](F)(N5)[C@H]3CCC4)c21 (some centres unmarked) [Example 4-24]"
  IC50: "> 100 nM"
- COMPOUND: "C#Cc1c(F)ccc2cc(N)cc(-c3nc4c5c(nc(OC[C@]6(C)CN(C)CC/C6=C\\F)nc5c3F)N3C[C@@]5(F)CC[C@](F)(N5)[C@@H]3[C@@H](C)C4)c12 [Example 4-39]"
  IC50: "0.383 nM"
- COMPOUND: "C#Cc1c(F)ccc2cc(N)cc(-c3nc4c5c(nc(OC[C@@H]6CCCN6C)nc5c3F)N3C[C@@]5(F)CC[C@](F)(N5)[C@H]3CCC4)c12 [Example 4-8]"
  IC50: "13.2 nM"
- COMPOUND: "Oc1cc(-c2nc3c4c(nc(OCC56CCCN5CCC6)nc4c2F)N2C[C@@]4(F)CC[C@](F)(N4)[C@H]2CCC3)c2c(OC(F)(F)F)c(F)ccc2c1 [Example 4-23]"
  IC50: "0.592 nM"

Task: Could you share what IC50 was measured for C[C@H]1Cc2nc(-c3ccc(F)c4sc(N)c(C#N)c34)c(F)c3nc(OCC45CCCN4CCC5)nc(c23)N2C[C@@]3(F)CC[C@](F)(N3)[C@H]12 [Example 4-14] , tested on GDP-loaded KRAS-G12C (Homo sapiens, UniProt P01116, G12C)?
Result: 0.534 nM

Task: Could you share what IC50 was measured for C#Cc1c(F)ccc2cc(N)cc(-c3nc4c5c(nc(OC[C@@]67CCCN6[C@H](COC(C(F)(F)F)(C(F)(F)F)C(F)(F)F)CC7)nc5c3F)N3C[C@@]5(F)CC[C@](F)(N5)[C@@H]3[C@@H](C)C4)c12 [Example 4-36] , tested on GDP-loaded KRAS-G12C (Homo sapiens, UniProt P01116, G12C)?
Result: > 100 nM

Task: Could you share what IC50 was measured for C[C@H]1Cc2nc(-c3cc(N)cc(Cl)c3C(F)(F)F)c(F)c3nc(OCC45CCCN4CCC5)nc(c23)N2C[C@@]3(F)CC[C@](F)(N3)[C@H]12 [Example 4-17] , tested on GDP-loaded KRAS-G12C (Homo sapiens, UniProt P01116, G12C)?
Result: 0.479 nM

Task: Could you share what IC50 was measured for C[C@H]1Cc2nc(-c3cc(O)cc4ccc(F)c(F)c34)c(F)c3nc(OCC45CCCN4CCC5)nc(c23)N2C[C@@]3(F)CC[C@](F)(N3)[C@H]12 [Example 4-12] , tested on GDP-loaded KRAS-G12C (Homo sapiens, UniProt P01116, G12C)?
Result: 0.172 nM

Task: Could you share what IC50 was measured for N#Cc1c(N)sc2c(F)ccc(-c3nc4c5c(nc(OCC67CCCN6CCC7)nc5c3F)N3C[C@@]5(F)CC[C@](F)(N5)[C@H]3CCC4)c12 [Example 4-7] , tested on GDP-loaded KRAS-G12C (Homo sapiens, UniProt P01116, G12C)?
Result: 28.5 nM

Task: Could you share what IC50 was measured for C#Cc1c(F)c(F)cc2cc(N)cc(-c3nc4c5c(nc(OCC67CCCN6CCC7)nc5c3F)N3C[C@@]5(F)CC[C@](F)(N5)[C@@H]3[C@@H](C)C4)c12 [Example 5-7] , tested on GDP-loaded KRAS-G12C (Homo sapiens, UniProt P01116, G12C)?
Result: 0.311 nM

Task: Could you share what IC50 was measured for Cn1ccc2cc(N)cc(-c3nc4c5c(nc(OCC67CCCN6CCC7)nc5c3F)N3C[C@@]5(F)CC[C@](F)(N5)[C@H]3CCC4)c2c1=O [Example 4-25] , tested on GDP-loaded KRAS-G12C (Homo sapiens, UniProt P01116, G12C)?
Result: > 100 nM
